TARGET_OR_SYSTEM: glucocerebrosidase (Gcase) (Homo sapiens, UniProt P04062)
Construct: micellar solution containing 10 nM GCase and 100 nM saposin C
Sequence (P04062 40-536): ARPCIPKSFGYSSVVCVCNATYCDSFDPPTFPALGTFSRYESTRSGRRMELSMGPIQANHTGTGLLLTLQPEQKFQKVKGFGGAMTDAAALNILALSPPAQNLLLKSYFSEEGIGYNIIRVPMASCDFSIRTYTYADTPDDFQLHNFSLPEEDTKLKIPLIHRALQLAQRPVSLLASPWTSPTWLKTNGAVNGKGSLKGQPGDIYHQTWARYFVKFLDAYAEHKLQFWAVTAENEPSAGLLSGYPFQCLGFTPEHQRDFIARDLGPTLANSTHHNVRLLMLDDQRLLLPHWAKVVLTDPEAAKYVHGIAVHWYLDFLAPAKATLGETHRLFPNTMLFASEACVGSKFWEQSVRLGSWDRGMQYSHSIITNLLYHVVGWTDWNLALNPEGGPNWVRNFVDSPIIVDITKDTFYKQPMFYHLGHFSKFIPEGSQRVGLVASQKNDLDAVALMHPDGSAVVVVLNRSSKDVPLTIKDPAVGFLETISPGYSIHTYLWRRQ
TEST: Glucocerebrosidase (Gcase) activation assay, 4-methylumbelliferyl-beta-D-glucopyranoside substrate, with saposin C
Assay type: biochemical
TEST_PARAMETERS: 1 μM test compound; 10 nM GCase, 100 nM saposin C, pH 4.7; read-out: Percent Gease Activation 1 μM Test Compound
Listed here: items and their measured activation at 1 µM.
ASSAY_ENDPOINT: activation at 1 µM

- CCCOc1cccc(C(C)(C)NC(=O)c2ncn3c(C4CC4)cc(COC)nc23)c1: > 60%
- Cc1cc(C)n2cnc(C(=O)Nc3ccc4oncc4c3)c2n1: < 30%
- Cc1cc(C)n2cnc(C(=O)Nc3ccc4nccc(O)c4c3)c2n1 [III-25]: < 30%

* * *

TEST: Compound solubility in water
Type: physicochemical
ASSAY_ENDPOINT: solubility

- Cc1cc(C)n2cnc(C(=O)Nc3ccc4cn[nH]c4c3)c2n1: 0.5 µg/mL
- COCc1cc(C2CC2)n2cnc(C(=O)NC(C)(C)c3cccc(OC4CC4)c3)c2n1: 26.3 µg/mL
- CCCOc1cccc(C(C)(C)NC(=O)c2ncn3c(C4CC4)cc(COC)nc23)c1: 31.3 µg/mL
- Cc1cc(C)n2cnc(C(=O)N[C@H](C)c3ccc(Cl)cc3)c2n1: 16.5 µg/mL
- CCCCCOc1ccc(NC(=O)c2ncn3c(C)cc(C)nc23)cc1: 0.3 µg/mL
- C#Cc1ccc(NC(=O)c2ncn3c(C)cc(C)nc23)cc1: < 1.5 µg/mL
- Cc1cc(C)n2cnc(C(=O)Nc3ccc(-c4ccco4)cc3)c2n1: 0.3 µg/mL
- Cc1cc(C(C)C)n2cnc(C(=O)Nc3cccc4c3CCC4)c2n1: 1 µg/mL
- Cc1cc(C)n2cnc(C(=O)Nc3ccc4oc(-c5ccncc5)nc4c3)c2n1: 0.3 µg/mL
- C#Cc1ccc(C(C)(C)NC(=O)c2ncn3c(C)cc(C)nc23)cc1: 18.7 µg/mL
- Cc1cc(C)n2cnc(C(=O)Nc3ccc4nc(O)cc(C)c4c3)c2n1: 0.3 µg/mL
- C#Cc1cccc(C(C)(C)NC(=O)c2ncn3c(C)cc(C(F)(F)F)nc23)c1: 40.5 µg/mL
- COc1ccccc1[C@H](C)NC(=O)c1ncn2c(C)cc(C)nc12: 22.6 µg/mL
- CCOCc1cccc(C(C)(C)NC(=O)c2ncn3c(C4CC4)cc(COC)nc23)c1: 31.6 µg/mL
- Cc1cc(C)n2cnc(C(=O)Nc3ccc4c(c3)CCC4)c2n1: 4.7 µg/mL
- Cc1cc(C)n2cnc(C(=O)N[C@@H](C)c3ccccc3F)c2n1: 37.3 µg/mL
- Cc1cc(C)n2cnc(C(=O)Nc3ccc4nccc(O)c4c3)c2n1: 6 µg/mL
- Cc1cc(C)n2cnc(C(=O)NC3Cc4ccccc4C3)c2n1: 18 µg/mL
- Cc1cc(C)n2cnc(C(=O)N[C@H]3CC[C@H](OC4CCC(C)(C)CC4)CC3)c2n1: 4.9 µg/mL
- Cc1cc(C)n2cnc(C(=O)Nc3ccc4nc(C)oc4c3)c2n1: 3 µg/mL
- COc1cc(NC(=O)c2ncn3c(C)cc(C)nc23)ccc1-c1cnco1: 0.5 µg/mL
- COCc1cc(C(C)C)n2cnc(C(=O)NC(C)(C)c3cccc(OC4CC4)c3)c2n1: 38.5 µg/mL
- Cc1cc(C)n2cnc(C(=O)Nc3ccc(C)c(-c4ncco4)c3)c2n1: 0.5 µg/mL

* * *

Below, each entry is listed alongside its reported activation at 1 µM.
TARGET_OR_SYSTEM: glucocerebrosidase (Gcase) (Homo sapiens)
Construct: micellar solution containing 10 nM GCase and 100 nM saposin C
TEST: Glucocerebrosidase (Gcase) activation assay, 4-methylumbelliferyl-beta-D-glucopyranoside substrate, with saposin C
Type: biochemical
TEST_PARAMETERS: 1 μM test compound; 10 nM GCase, 100 nM saposin C, pH 4.7; read-out: Percent Gease Activation 1 μM Test Compound
ASSAY_ENDPOINT: activation at 1 µM

- COCc1cc(C2CC2)n2cnc(C(=O)NC3(C)CCOc4c(F)ccc(F)c43)c2n1 (stereo not drawn): 30 to 60%
- C#Cc1cccc(C(C)(C)NC(=O)c2ncn3c(C)cc(C(F)(F)F)nc23)c1: < 30%
- CCOCc1cccc(C(C)(C)NC(=O)c2ncn3c(C4CC4)cc(COC)nc23)c1: < 30%
- Cc1cc(C)n2cnc(C(=O)Nc3ccc4c(c3)CC(=O)N4)c2n1: < 30%
- Cc1cc(C)n2cnc(C(=O)N[C@H](C)c3ccc(Cl)cc3)c2n1: 30 to 60%
- Cc1cc(C(C)C)n2cnc(C(=O)NC3(C)CCOc4c(F)cccc43)c2n1 (stereo not drawn): 30 to 60%
- Cc1cc(C)n2cnc(C(=O)Nc3ccc(-c4cscn4)cc3)c2n1: 30 to 60%
- Cc1cc(C)n2cnc(C(=O)Nc3ccc(-c4ncco4)cc3)c2n1: 30 to 60%
- C#Cc1ccc(NC(=O)c2ncn3c(C)cc(C)nc23)cc1: > 60%
